The substances listed here are annotated with their % Inhibition.
# Test system: human SMAD7 mRNA
# assay.summary: Antisense inhibition of human SMAD7 mRNA expression in Hep3B cells by 3-10-3 cEt gapmers, 10,000 nM, electroporation (Example 2)
# Assay type: cell-based
# measurement.setup: Hep3B cells, electroporation with 10,000 nM antisense oligonucleotide, approximately 24 hours, SMAD7 mRNA by RT-PCR (RTS5062), relative to untreated control cells
Strand notation (5' to 3'): a small letter for the sugar, then the base; units joined by * are phosphorothioate-linked, units joined directly phosphodiester-linked; [ ] holds rarer units or linkages, { } end groups; capitals alone tell only the bases. k = constrained ethyl (cEt); [5mC] = 5-methylcytosine; d = 2'-deoxy (DNA)
Please respond with the number in % and leave the unit unwritten.

Check out these entries, answers already filled in.
substance	unit.symbol	quantitative.readout
800062 (antisense k[5mC]*k[5mC]*k[5mC]*d[5mC]*dA*dA*dG*d[5mC]*dT*dG*dG*d[5mC]*d[5mC]*kT*kT*k[5mC]) [compound 800062]	%	25
830061 (k[5mC]*kT*kA*d[5mC]*d[5mC]*dA*d[5mC]*d[5mC]*d[5mC]*d[5mC]*dT*dG*dT*kG*kA*kA; antisense) [compound 830061]	%	4
830087 (kT*kT*kT*dT*dA*d[5mC]*dA*dG*dG*dA*dT*dA*d[5mC]*kA*k[5mC]*kT; antisense) [compound 830087]	%	35
830119 (k[5mC]*k[5mC]*kG*dA*d[5mC]*d[5mC]*dT*dT*d[5mC]*d[5mC]*dT*d[5mC]*d[5mC]*k[5mC]*kA*k[5mC]; antisense) [compound 830119]	%	24
799330 (kG*kG*kT*dA*dT*dG*d[5mC]*dA*d[5mC]*dA*d[5mC]*dT*d[5mC]*kT*k[5mC]*k[5mC]; antisense) [compound 799330]	%	45

What value of measured % Inhibition is listed for 800022 (kG*kG*kA*dA*dG*dA*dG*d[5mC]*d[5mC]*dT*dT*dG*dG*k[5mC]*k[5mC]*kT; antisense) [compound 800022] ?
30

Values compiled from patent US10517889B2.
